In this section we review reported protein stability index values for a set of variants.
B1: INTS3 (parent)
chain: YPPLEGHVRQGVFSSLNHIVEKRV

variants of: B1; test: protein stability index of a GFP-peptide fusion (GPS, HEK-293T) (PSI 1-6); higher = more stable; settings: c terminus: a fixed tail appended;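 further: lentivirally expressed fusions sorted by FACS into six bins by GFP to DsRed ratio, PSI derived from sequencing read proportions per bin multiplied by bin number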
measured_parameter: protein stability index

[[record]]
mutation_spec = "G11M"
measured_value = 1.79

[[record]]
mutation_spec = "H7K"
measured_value = 2.21

[[record]]
mutation_spec = "V12I"
measured_value = 2.37

[[record]]
mutation_spec = "G6K"
measured_value = 2.13

[[record]]
mutation_spec = "E21K"
measured_value = 2.26

[[record]]
mutation_spec = "F13H"
measured_value = 4.25

[[record]]
mutation_spec = "E5T"
measured_value = 1.96

[[record]]
mutation_spec = "E5I"
measured_value = 1.73

[[record]]
mutation_spec = "H7F"
measured_value = 2.42

[[record]]
mutation_spec = "L4Y"
measured_value = 1.83

[[record]]
mutation_spec = "I19F"
measured_value = 2.31

[[record]]
mutation_spec = "V20G"
measured_value = 1.76

[[record]]
mutation_spec = "G11T"
measured_value = 2.27

[[record]]
mutation_spec = "V24I"
measured_value = 2.69

[[record]]
mutation_spec = "V12M"
measured_value = 2.36

[[record]]
mutation_spec = "G6T"
measured_value = 3.99

[[record]]
mutation_spec = "S14F"
measured_value = 1.79

[[record]]
mutation_spec = "R23V"
measured_value = 1.85

[[record]]
mutation_spec = "P2T"
measured_value = 1.6

[[record]]
mutation_spec = "V8C"
measured_value = 2.86

[[record]]
mutation_spec = "L16V"
measured_value = 3.1

[[record]]
mutation_spec = "S15N"
measured_value = 2.4

[[record]]
mutation_spec = "V12T"
measured_value = 3.27

[[record]]
mutation_spec = "S15E"
measured_value = 2.17

[[record]]
mutation_spec = "R9F"
measured_value = 2.09

[[record]]
mutation_spec = "V20N"
measured_value = 2.34

[[record]]
mutation_spec = "L16E"
measured_value = 3.65

[[record]]
mutation_spec = "G6E"
measured_value = 3.51

[[record]]
mutation_spec = "R23D"
measured_value = 2.83

[[record]]
mutation_spec = "E5P"
measured_value = 2.14

[[record]]
mutation_spec = "L16Y"
measured_value = 2.22

[[record]]
mutation_spec = "N17R"
measured_value = 2.44

[[record]]
mutation_spec = "V12Y"
measured_value = 2.54

[[record]]
mutation_spec = "V8M"
measured_value = 2.46

[[record]]
mutation_spec = "L16R"
measured_value = 4.03

[[record]]
mutation_spec = "G6C"
measured_value = 2.39

[[record]]
mutation_spec = "Y1F"
measured_value = 2.88

[[record]]
mutation_spec = "P2C"
measured_value = 1.78

[[record]]
mutation_spec = "V12E"
measured_value = 3.46

[[record]]
mutation_spec = "G11E"
measured_value = 2.88

[[record]]
mutation_spec = "V8W"
measured_value = 1.78

[[record]]
mutation_spec = "R9K"
measured_value = 2.94

[[record]]
mutation_spec = "V8S"
measured_value = 3

[[record]]
mutation_spec = "P3A"
measured_value = 2.43

[[record]]
mutation_spec = "H18Y"
measured_value = 1.83

[[record]]
mutation_spec = "K22G"
measured_value = 1.92

[[record]]
mutation_spec = "S15A"
measured_value = 2.23

[[record]]
mutation_spec = "Q10R"
measured_value = 2.26

[[record]]
mutation_spec = "P2R"
measured_value = 3.48

[[record]]
mutation_spec = "P3C"
measured_value = 2.78

[[record]]
mutation_spec = "S15F"
measured_value = 2.32

[[record]]
mutation_spec = "H7Q"
measured_value = 2.36

[[record]]
mutation_spec = "R9C"
measured_value = 2.06

[[record]]
mutation_spec = "F13M"
measured_value = 3.36

[[record]]
mutation_spec = "H7I"
measured_value = 2.21

[[record]]
mutation_spec = "L16C"
measured_value = 2.24

[[record]]
mutation_spec = "N17K"
measured_value = 2.28

[[record]]
mutation_spec = "I19M"
measured_value = 3.33

[[record]]
mutation_spec = "R9V"
measured_value = 3.14

[[record]]
mutation_spec = "E21P"
measured_value = 2.26

[[record]]
mutation_spec = "H18P"
measured_value = 3.04

[[record]]
mutation_spec = "V12L"
measured_value = 3.31

[[record]]
mutation_spec = "V20Q"
measured_value = 2.72

[[record]]
mutation_spec = "Y1L"
measured_value = 3.53

[[record]]
mutation_spec = "G6M"
measured_value = 2.51

[[record]]
mutation_spec = "E5G"
measured_value = 3.59

[[record]]
mutation_spec = "S14M"
measured_value = 2.07

[[record]]
mutation_spec = "F13T"
measured_value = 2.98

[[record]]
mutation_spec = "E5M"
measured_value = 2.24

[[record]]
mutation_spec = "S14E"
measured_value = 2.73

[[record]]
mutation_spec = "V8G"
measured_value = 2.19

[[record]]
mutation_spec = "V20L"
measured_value = 2.2

[[record]]
mutation_spec = "E5Y"
measured_value = 1.87

[[record]]
mutation_spec = "V12K"
measured_value = 3.63

[[record]]
mutation_spec = "H18D"
measured_value = 3.39

[[record]]
mutation_spec = "H18I"
measured_value = 1.99

[[record]]
mutation_spec = "V8P"
measured_value = 2.31

[[record]]
mutation_spec = "R23Q"
measured_value = 2.83

[[record]]
mutation_spec = "E5C"
measured_value = 2.08

[[record]]
mutation_spec = "G6A"
measured_value = 2.38

[[record]]
mutation_spec = "R9E"
measured_value = 3.52

[[record]]
mutation_spec = "Q10Y"
measured_value = 1.99

[[record]]
mutation_spec = "S14A"
measured_value = 2.75

[[record]]
mutation_spec = "P3M"
measured_value = 2.67

[[record]]
mutation_spec = "I19N"
measured_value = 3.23

[[record]]
mutation_spec = "K22Y"
measured_value = 1.34

[[record]]
mutation_spec = "Y1S"
measured_value = 3.78

[[record]]
mutation_spec = "K22H"
measured_value = 2.65

[[record]]
mutation_spec = "P3W"
measured_value = 1.49

[[record]]
mutation_spec = "V8A"
measured_value = 2.46

[[record]]
mutation_spec = "I19W"
measured_value = 3.41

